- assay_details: Selectivity ratio for inhibition of Protein phosphatase 1 and Protein phosphatase 2A
attribute_measured: Selectivity ratio

Example cases with answers are listed next.
In: What measured Selectivity ratio goes with CO[C@@H]([C@H](O)CC(=O)[C@@H](C)[C@@H](O)CC[C@@H](C)[C@@H]1O[C@]2(CC[C@@H](C)[C@H](CC[C@H](C)C(C)=O)O2)CC[C@@H]1C)[C@H](OC(=O)C[C@](C)(O)C(=O)O)C(C)C ?
Out: 1.5

In: What measured Selectivity ratio goes with CO[C@@H]([C@H](O)CC(=O)[C@@H](C)[C@@H](O)CC[C@@H](C)[C@@H]1O[C@]2(CC[C@@H](C)[C@H](CC[C@H](C)C(C)=O)O2)CC[C@@H]1C)[C@H](OC(=O)C[C@@H](O)/C=C(\C)C(=O)O)C(C)C ?
Out: 1.9

1 = CO[C@@H]([C@H](O)CC(=O)[C@@H](C)[C@@H](O)CC[C@@H](C)[C@@H]1O[C@]2(CC[C@@H](C)[C@H](CC[C@H](C)C(C)=O)O2)CC[C@@H]1C)[C@H](OC(=O)CCCP(=O)(O)O)C(C)C
2 = CO[C@@H]([C@H](O)CC(=O)[C@@H](C)[C@@H](O)CC[C@@H](C)[C@@H]1O[C@]2(CC[C@@H](C)[C@H](CC[C@H](C)C(C)=O)O2)CC[C@@H]1C)[C@H](OC(=O)C[C@@](C)(O)C(=O)O)C(C)C
In: Which of these two has the smaller recorded Selectivity ratio: 1 or 2 ? // caller expects the label of the chosen entry
Out: 2
(2: 1.3, 1: 2)

---

- assay_details: Inhibition of protein phosphatase 1 (PP1) was determined by standard phosphorylase a inhibition assay
- Design: species or system Oryctolagus cuniculus
pIC50: −log10 of the molar value.
attribute_measured: pIC50

In: What measured pIC50 goes with CO[C@@H]([C@H](O)CC(=O)[C@@H](C)[C@@H](O)CC[C@@H](C)[C@@H]1O[C@]2(CC[C@@H](C)[C@H](CC[C@H](C)C(C)=O)O2)CC[C@@H]1C)[C@H](OC(=O)CCCP(=O)(O)O)C(C)C ?
Out: 3.82

In: What measured pIC50 goes with CO[C@@H]([C@H](O)CC(=O)[C@@H](C)[C@@H](O)CC[C@@H](C)[C@@H]1O[C@]2(CC[C@@H](C)[C@H](CC[C@H](C)C(C)=O)O2)CC[C@@H]1C)[C@H](OC(=O)C[C@@H](O)/C=C(\C)C(=O)O)C(C)C ?
Out: 5.68

In: What measured pIC50 goes with CO[C@H]([C@H](O)CC(=O)[C@@H](C)[C@@H](O)CC[C@@H](C)[C@@H]1O[C@]2(CC[C@@H](C)[C@H](CC[C@H](C)C(C)=O)O2)CC[C@@H]1C)[C@H](OC(=O)C[C@@H](O)C1=C(C)C(=O)OC1=O)C(C)C [TAUTOMYCIN] ?
Out: 5.72

In: What measured pIC50 goes with CO[C@@H]([C@H](O)CC(=O)[C@@H](C)[C@@H](O)CC[C@@H](C)[C@@H]1O[C@]2(CC[C@@H](C)[C@H](CC[C@H](C)C(C)=O)O2)CC[C@@H]1C)[C@H](OC(=O)C[C@H](O)C1=C(C)C(=O)OC1=O)C(C)C ?
Out: 6.89

I = CO[C@@H]([C@H](O)CC(=O)[C@@H](C)[C@@H](O)CC[C@@H](C)[C@@H]1O[C@]2(CC[C@@H](C)[C@H](CC[C@H](C)C(C)=O)O2)CC[C@@H]1C)[C@H](OC(=O)C[C@](C)(O)C(=O)O)C(C)C
II = CO[C@@H]([C@H](O)CC(=O)[C@@H](C)[C@@H](O)CC[C@@H](C)[C@@H]1O[C@]2(CC[C@@H](C)[C@H](CC[C@H](C)C(C)=O)O2)CC[C@@H]1C)[C@H](OC(=O)C[C@@](C)(O)C(=O)O)C(C)C
In: When their pIC50 values are compared, which is larger, I or II ? // caller expects the label of the chosen entry
Out: I
(I: 4.72, II: 4.10)
